The compounds listed here are annotated with their IC50.
target: UniProt Q9UGL1; experiment: Histone lysine demethylase AlphaLISA assay, KDM5B; type: biochemical; settings: read-out: KDM5B HDME Inhibition IC50

Use these answered entries as a reference point.
N#CCNCc1ccnc(CNCCCCN(Cc2ccccc2)C2CC2)c1 [Compound 23] | 250 to 2500 nM
CCN(CC)CCCCN(Cc1cc(CNC(=O)C(F)(F)F)ccn1)C(=O)C(F)(F)F [Compound 6] | > 2500 nM
CCN(CC)CCCCNCc1cc(C2NCCCN2C)ccn1 (centres unmarked) [Compound 68] | < 250 nM
CC(C)C[C@H](NCc1cc(/C=N/CCO)ccn1)C(=O)N1CCCCC1 [Compound 95] | > 2500 nM
CN1CCC(CNCc2cc(C=O)ccn2)CC1 [Compound 100] | < 250 nM

IC50 for CCN(CC)CCCCN(Cc1cc(C=O)ccn1)C(=O)C(F)(F)F [Compound 115] ?
> 2500 nM

IC50 for CCN(CCN(C)C)C(=O)CNCc1cc(CNC(=O)C(F)(F)F)ccn1 [Compound 25] ?
250 to 2500 nM

IC50 for CCN(CCN(C)C)C(=O)CNCc1cc(C2NCC(C)(C)CO2)ccn1 (centres unmarked) [Compound 87] ?
< 250 nM

IC50 for CCN(CCN(C)C)C(=O)CNCc1cc(/C=N/CC2(CO)CC2)ccn1 [Compound 88] ?
< 250 nM

IC50 for CCN(CCCN(C)C)C(=O)CNCc1cc(/C=N/CCO)ccn1 [Compound 82] ?
> 2500 nM

IC50 for CCN(CCN(C)C)C(=O)CNCc1cc(C=O)ccn1 [Compound 101] ?
< 250 nM

###

target: KDM5B (Homo sapiens); construct: (a.a. 1-752); test: Histone lysine demethylase immunofluorescence assay, U2OS cells transfected with KDM5B; settings: U2OS cells transfected with pCMVHA KDM5B; mark detected H3K4me2; 20 hours
Property Measured: IC50

Use these answered entries as a reference point.
CCN(CC)CCCCNCc1cc(CN)ccn1 | < 250 nM
CN1CCCC1CCNCc1cc(/C=N/C2CC2)ccn1 (stereo not drawn) | < 250 nM
C(=N/C1CC1)/c1ccnc(CNCCCN2CCCC2)c1 | < 250 nM
CN(C)C(=O)CNCc1cc(/C=N/CCC2CCCCC2)ccn1 | 250 to 2500 nM
CCN(CC)CCCCNCc1cc(/C=N/CCO)ccn1 | < 250 nM
CON=Cc1ccnc(CNCCCN(C)C)c1 | > 2500 nM
CN(C)CCCCNCc1cc(CNC2CC2)ccn1 | > 2500 nM
C#CCN(C)C(=O)CNCc1cc(/C=N/C2CC2)ccn1 | > 2500 nM
CCSCCNCc1cc(/C=N/C2CC2)ccn1 | > 2500 nM
CCN(CCN(C)C)C(=O)CNCc1cc(C2OCC3(CC3)CN2C(=O)C(F)(F)F)ccn1 (stereo not drawn) | < 250 nM

Kindly state the measured IC50 obtained for `O=C(CNCc1cc(/C=N/C2CC2)ccn1)N1CCC[C@@H]1CN1CCCC1` with KDM5B (Homo sapiens).
< 250 nM

Kindly state the measured IC50 obtained for `CCN(CCN(C)C)C(=O)CN(Cc1cc(CNC(=O)C(F)(F)F)ccn1)C(=O)C(F)(F)F` with KDM5B (Homo sapiens).
< 250 nM

Kindly state the measured IC50 obtained for `CN(C)CCCCCNCc1cc(C=O)ccn1` with KDM5B (Homo sapiens).
< 250 nM

Kindly state the measured IC50 obtained for `CCN(CC(C)(C)N(C)C)C(=O)CNCc1cc(C=O)ccn1` with KDM5B (Homo sapiens).
< 250 nM

Kindly state the measured IC50 obtained for CC1CCCCN1CCCNCc1cc(CNC2CC2)ccn1 (stereo not drawn) with KDM5B (Homo sapiens).
> 2500 nM

Kindly state the measured IC50 obtained for `CN(C)C/C=C/CNCc1cc(/C=N/C2CC2)ccn1` with KDM5B (Homo sapiens).
< 250 nM

Kindly state the measured IC50 obtained for CNC(C#N)c1ccnc(CNCCCN(C)C)c1 (stereo not drawn) with KDM5B (Homo sapiens).
< 250 nM

Kindly state the measured IC50 obtained for `CN(C)C/C=C/CNCc1cc(C=O)ccn1` with KDM5B (Homo sapiens).
< 250 nM

Kindly state the measured IC50 obtained for `CN(C)CCCCNCc1cc(CN)ccn1` with KDM5B (Homo sapiens).
< 250 nM

Kindly state the measured IC50 obtained for `CCN(CC)CCCCNC(=O)CNCc1cc(/C=N/C2CC2)ccn1` with KDM5B (Homo sapiens).
> 2500 nM

Kindly state the measured IC50 obtained for CN(C)CCNCc1cc(CNC(C#N)C2CC2)ccn1 (stereo not drawn) with KDM5B (Homo sapiens).
250 to 2500 nM

###

test system: A375; test: Cell proliferation assay A375; assay type: cell-based; conditions: Homo sapiens, A-375; A375, Melanoma; method of Example 5
Property Measured: EC50

EC50 for CCN(CCN(C)C)C(=O)CNCc1cc(CNC(=O)C(F)(F)F)ccn1 [Compound 25] ?
250 to 2500 nM

###

Biological target: KDM4C (JMJD2C) (Homo sapiens, UniProt Q9H3R0)
Sequence (Q9H3R0 1-349): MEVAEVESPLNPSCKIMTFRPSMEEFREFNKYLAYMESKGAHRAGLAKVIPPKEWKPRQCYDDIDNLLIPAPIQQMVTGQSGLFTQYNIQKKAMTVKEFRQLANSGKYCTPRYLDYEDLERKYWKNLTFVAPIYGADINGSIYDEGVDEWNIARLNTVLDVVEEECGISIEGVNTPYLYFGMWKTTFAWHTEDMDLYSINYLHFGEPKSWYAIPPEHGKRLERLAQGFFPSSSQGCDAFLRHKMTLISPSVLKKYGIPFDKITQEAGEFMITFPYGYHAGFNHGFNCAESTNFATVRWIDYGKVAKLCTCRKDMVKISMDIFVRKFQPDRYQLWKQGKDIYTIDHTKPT
Test: Histone lysine demethylase AlphaLISA assay, KDM4C
Assay type: biochemical
Conditions: read-out: KDM4C HDME Inhibition IC50
pIC50: −log10 of the molar value.
Property Measured: pIC50

CCN(CC)CCN(CC)C(=O)CNCc1cc(C=O)ccn1 | > 6.60
CCN(CCN(C)C)C(=O)CNCc1cc(C2OCC(Cc3ccccc3)CN2C(=O)C(F)(F)F)ccn1 (centres unmarked) | 5.60 to 6.60
CCN(CCN1CCC1)C(=O)CNCc1cc(CNC(=O)C(F)(F)F)ccn1 | < 5.60
CN(C)CCCCNCc1cc(CNC2CC2)ccn1 | < 5.60

pIC50 for `CN(C)C(=O)CNCc1cc(/C=N\C2CC2)ccn1` ?
> 6.60

###

The compounds listed here are annotated with their pIC50.
Molecular target: KDM5B (Homo sapiens, UniProt Q9UGL1)
Construct: (a.a. 1-752); host or cells: U2OS
Sequence (Q9UGL1 1-752): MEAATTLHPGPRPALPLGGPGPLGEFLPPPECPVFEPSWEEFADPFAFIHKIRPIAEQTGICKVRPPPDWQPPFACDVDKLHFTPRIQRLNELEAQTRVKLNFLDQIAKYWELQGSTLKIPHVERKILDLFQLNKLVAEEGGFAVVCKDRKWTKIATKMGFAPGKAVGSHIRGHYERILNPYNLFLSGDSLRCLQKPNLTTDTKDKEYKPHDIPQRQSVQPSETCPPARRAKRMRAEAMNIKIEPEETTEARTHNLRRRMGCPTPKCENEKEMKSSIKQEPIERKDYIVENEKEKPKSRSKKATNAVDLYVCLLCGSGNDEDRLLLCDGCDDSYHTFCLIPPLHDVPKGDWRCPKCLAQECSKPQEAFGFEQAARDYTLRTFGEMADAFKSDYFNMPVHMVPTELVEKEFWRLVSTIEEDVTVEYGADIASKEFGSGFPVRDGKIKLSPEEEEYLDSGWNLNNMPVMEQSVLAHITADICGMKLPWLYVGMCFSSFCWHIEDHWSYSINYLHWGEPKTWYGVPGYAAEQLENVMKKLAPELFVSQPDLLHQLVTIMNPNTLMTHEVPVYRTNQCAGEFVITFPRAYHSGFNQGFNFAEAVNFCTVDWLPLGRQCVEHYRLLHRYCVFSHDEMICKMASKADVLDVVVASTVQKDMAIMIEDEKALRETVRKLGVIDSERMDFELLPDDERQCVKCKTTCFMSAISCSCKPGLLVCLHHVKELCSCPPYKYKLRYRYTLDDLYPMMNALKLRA
Experiment: Histone lysine demethylase immunofluorescence assay, U2OS cells transfected with KDM5B
Type: cell-based
Conditions: U2OS cells transfected with pCMVHA KDM5B; mark detected H3K4me2; 20 hours
pIC50: −log10 of the molar value.

NCc1ccnc(CNCCCCN2CCC2)c1 [Compound 7] | > 6.60
CN(C)C(=O)CNCc1cc(/C=N\C2CC2)ccn1 [Compound 33] | 5.60 to 6.60
O=Cc1ccnc(CNCC(=O)NC2CCN(Cc3ccccc3)C2)c1 (stereo not shown) [Compound 113] | < 5.60
CN1CCN(C(=O)CNCc2cc(/C=N/C3CC3)ccn2)CC1 [Compound 54] | 5.60 to 6.60
COc1ccccc1CN1CCC(NC(=O)CNCc2cc(CNC3CC3)ccn2)CC1 [Compound 20] | 5.60 to 6.60

Next, consider the following compound.
pIC50 for CN(CCCn1cccn1)C(=O)CNCc1cc(/C=N/C2CC2)ccn1 [Compound 52] ?
5.60 to 6.60
